The values you see were collected from PubChem BioAssay AID624297.

- TEST: A quantitative high throughput screen for small molecules that induce DNA re-replication in SW480 colon adenocarcinoma cells. Further: nearly all actives have a fitted effect of over 55% in size.
- STUDY CONDITIONS: Hoechst DNA content imaging, 48 h; series mostly up to 46.1 µM
The campaign covered roughly 340,000 compounds. About 6,200 (1.8%) were called active. Another 10% or so got no clear call; they are omitted. The call rests on the fitted dose curve; in most records, active means well fitted activation curve with a large enough effect; inconclusive means small, poorly fitted or top-dose-only effect; inactive means no such curve, though single readings can be large or run the other way. This is one part of a sample in which actives are shown more often than they occur.
Labels: class 1 for active, class 0 for inactive

compound=O=C(Nc1ccc2ccccc2c1[N+](=O)[O-])c1ccccc1 label_value="class 0"
compound=NS(=O)(=O)c1cccc(NC(=O)COC(=O)c2cc([N+](=O)[O-])ccc2N2CCCC2)c1 label_value="class 0"
compound="Oc1ccccc1C1=NN(c2ccccc2)C(c2ccccc2)C1 (stereo unspecified)" label_value="class 1"
compound=CCOC(=O)c1ccccc1NC(=O)CSc1nc2c(sc(=S)n2CC)c(=O)[nH]1 label_value="class 0"
compound=O=S(=O)(O)c1cc2onnc2c2ccccc12 label_value="class 0"
compound=O=C(NCC1(N2CCCCC2)CCCCC1)c1cccc(S(=O)(=O)Nc2ccccc2Cl)c1 label_value="class 0"
